target_entity: T1, PVR conjugated to Histidine tag (PVR-HIS, Sino Cat. no. 10109-H08H) (Homo sapiens (Human), UniProt P15151 21-343)
T1 construct: Bought reagent; also called PVR-HIS tagged
T1 sequence: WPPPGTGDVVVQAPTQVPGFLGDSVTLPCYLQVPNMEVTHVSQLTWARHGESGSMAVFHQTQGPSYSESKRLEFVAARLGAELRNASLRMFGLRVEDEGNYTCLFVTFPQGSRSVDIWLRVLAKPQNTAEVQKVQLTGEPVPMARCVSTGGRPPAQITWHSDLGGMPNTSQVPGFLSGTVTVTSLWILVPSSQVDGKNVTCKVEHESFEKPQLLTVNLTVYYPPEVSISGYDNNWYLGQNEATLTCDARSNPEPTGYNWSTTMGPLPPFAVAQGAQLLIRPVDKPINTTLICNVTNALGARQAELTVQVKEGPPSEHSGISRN
measurement_notes: SPR (Biacore T200); KD divided by the KD of VH0/Vκ0 WT
Would you please tag the item T when its Relative KD is 0.9 or above, and F when it is below?

Could you tell me if the measured Relative KD of chimeric 5B9 N56D variant, IgG4 (S241P) (antibody, name in Kabat numbering, V domains shown, Human IgG4 (S241P) constant region) VH: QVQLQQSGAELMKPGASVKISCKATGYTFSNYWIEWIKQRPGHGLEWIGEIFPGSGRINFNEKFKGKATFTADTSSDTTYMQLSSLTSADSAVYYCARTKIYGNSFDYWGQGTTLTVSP VL: DIMMTQSHKFMSTSVGDRVNITCKASQDVGTAVVWYQQKPGQSPKLLIYWASSRHDGVPDRFTGSGSGTDFTLTISNVQSEDLSDYFCQQYSRYPLTFGAGTKLELK reaches 0.9 or more?
F

Could you tell me if the measured Relative KD of VH0/Vκ0 Pro56 (antibody, V domains shown, chimeric 5B9 N56 substitution variant; also called N56P) VH: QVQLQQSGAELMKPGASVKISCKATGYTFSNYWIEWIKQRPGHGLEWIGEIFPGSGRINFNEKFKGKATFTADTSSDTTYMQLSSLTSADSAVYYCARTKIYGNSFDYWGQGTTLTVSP VL: DIMMTQSHKFMSTSVGDRVNITCKASQDVGTAVVWYQQKPGQSPKLLIYWASSRHPGVPDRFTGSGSGTDFTLTISNVQSEDLSDYFCQQYSRYPLTFGAGTKLELK reaches 0.9 or more?
T

Could you tell me if the measured Relative KD of VH0/Vκ0 Thr56 (antibody, V domains shown, chimeric 5B9 N56 substitution variant; also called N56T) VH: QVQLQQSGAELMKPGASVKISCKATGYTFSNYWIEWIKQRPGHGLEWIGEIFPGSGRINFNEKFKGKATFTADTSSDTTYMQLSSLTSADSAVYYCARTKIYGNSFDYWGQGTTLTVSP VL: DIMMTQSHKFMSTSVGDRVNITCKASQDVGTAVVWYQQKPGQSPKLLIYWASSRHTGVPDRFTGSGSGTDFTLTISNVQSEDLSDYFCQQYSRYPLTFGAGTKLELK reaches 0.9 or more?
F

Could you tell me if the measured Relative KD of VH0/Vκ0 Ser56 (antibody, V domains shown, chimeric 5B9 N56 substitution variant; also called N56S) VH: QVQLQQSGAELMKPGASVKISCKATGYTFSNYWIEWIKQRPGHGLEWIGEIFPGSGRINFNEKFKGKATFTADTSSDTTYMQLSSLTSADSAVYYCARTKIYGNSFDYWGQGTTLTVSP VL: DIMMTQSHKFMSTSVGDRVNITCKASQDVGTAVVWYQQKPGQSPKLLIYWASSRHSGVPDRFTGSGSGTDFTLTISNVQSEDLSDYFCQQYSRYPLTFGAGTKLELK reaches 0.9 or more?
T

These measurements were taken from patent US20260152568A1.
